Test: Quantitative High-Throughput drug screen in 47 multiple myeloma cell lines against the NCATS MIPE library collection: KMS28BM_JCRB cell viability assay (AID 1919874); also: nearly all actives have a fitted effect of over 35% in size; also: potency is read from the fitted curve at half-maximal effect
Conditions: CellTiter-Glo ATP, 48 h; series mostly up to 45.8 µM
Results filed as inconclusive are left out. Calls of active or inactive are those of the source. Calls follow the shape of the dose curve; as a rule, active = well fitted cell-killing curve with a large enough effect; inconclusive = small, poorly fitted or top-dose-only effect, or effect the other way; inactive = no such curve, though single readings can be large or run the other way.
recorded endpoint: Potency

Example results:
CC(C(C)N1CC(=O)NC(=O)C1)N1CC(=O)NC(=O)C1 (stereo not drawn) : inactive
COc1cc(OC)c(NC(=O)Nc2cc(C)on2)cc1Cl : inactive
O=C(O)C=Cc1ccc(Cn2ccnc2)cc1 : inactive
CN(C)CCN1C(=O)c2cccc3cc(N)cc(c23)C1=O : 16600 nM (active)
COc1cc(C)c(C=CC(C)=CC=CC(C)=CC(=O)O)c(C)c1C : inactive
Cn1cc(CNCC2CCN(c3ncc(C(=O)NO)cn3)CC2)c2ccccc21 : 18.7 nM (active)
COc1cccc2c1C(=O)c1c(O)c3c(c(O)c1C2=O)C[C@@](O)(C(=O)CO)C[C@@H]3O[C@H]1C[C@H](N)[C@H](OC2CCCCO2)[C@H](C)O1 (stereo partly drawn) : 1660 nM (active)
Cc1cc(C(=O)NOCCO)c(Nc2ccc(I)cc2F)n(C)c1=O : inactive

## Task Consider the compound `CC(C)(C)c1nc2c3cc[nH]c(=O)c3c3cc(F)ccc3c2[nH]1` and give its recorded Potency.
## Result 2090 nM (active)

## Task Assign Potency to the following record: `CCOC(=O)N1CCN([N+]([O-])=NOc2ccc([N+](=O)[O-])cc2[N+](=O)[O-])CC1`
## Result 833 nM (active)

## Task Please give measured Potency of the following entry: `CCNC(=O)c1cc2c(-c3cc(OCCN4CCCC4)c(Cl)cc3Cl)nc(N)nc2s1`
## Result 1320 nM (active)
